Tested on: M14 melanoma
Experiment: NCI-60 one-dose screen, 48 h
Settings: 10 µM unless noted
This is part of a sample that, as a whole, favours compounds with a hit. Of some 83,000 tested, about 20% had one in any assay. Active and inactive are the calls of the source. How the source made its calls: active means growth percent below 10; inactive means the rest.
Entry note: the call must match one of active, inactive

Below are worked cases with known answers.
smiles.code	assigned.category
CC(=O)NC(C)(C)C(=O)N[C@@H](C)C(=O)NC(C)(C)C(=O)N[C@@H](C)C(=O)NC(C)(C)C(=O)N[C@@H](C)C(=O)N[C@@H](CCC(N)=O)C(=O)NC(C)(C)C(=O)N[C@H](C(=O)NC(C)(C)C(=O)NCC(=O)N[C@@H](CC(C)C)C(=O)NC(C)(C)C(=O)N1CCC[C@H]1C(=O)N[C@H](C(=O)NC(C)(C)C(=O)NC(C)(C)C(=O)N[C@@H](CCC(N)=O)C(=O)N[C@@H](CCC(N)=O)C(=O)N[C@H](CO)CC1CCCCC1)C(C)C)C(C)C	active
COc1ccc(-c2nc(SCCC(C)C)nc(N/N=C\c3ccc(O)cc3)c2C#N)cc1	inactive
C/C(=N/Nc1nc(N/N=C(/C)c2ccc([N+](=O)[O-])cc2)nc(N2CCOCC2)n1)c1ccc([N+](=O)[O-])cc1	inactive
Cn1cc(-c2nnc(N)nc2-c2cn(C)c3ccc(F)cc23)c2cc(F)ccc21	inactive

Here is another compound to look at.
How was Cc1cc(NS(=O)(=O)c2ccc(-c3cnc(C4CC4)o3)cc2)ccc1I classified in this test?
inactive

Taken from PubChem BioAssay (NCI).
